The entries that follow carry pKi values tested on S1P1 (Homo sapiens (Human)), drawn from several published reports.
Sequence (P21453 whole entry, species assumed): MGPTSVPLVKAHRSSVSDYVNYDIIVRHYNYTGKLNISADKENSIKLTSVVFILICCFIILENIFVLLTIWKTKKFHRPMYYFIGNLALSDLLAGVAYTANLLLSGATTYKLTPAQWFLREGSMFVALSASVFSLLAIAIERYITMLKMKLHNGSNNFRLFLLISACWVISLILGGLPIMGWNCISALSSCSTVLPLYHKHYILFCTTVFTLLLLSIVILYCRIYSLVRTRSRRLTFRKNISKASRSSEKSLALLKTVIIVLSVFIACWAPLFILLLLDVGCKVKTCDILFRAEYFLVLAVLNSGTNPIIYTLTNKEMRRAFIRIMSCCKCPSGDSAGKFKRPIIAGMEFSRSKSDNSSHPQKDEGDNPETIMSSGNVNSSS
Schema: pKi number; meaning minus log10 of the concentration expressed in molar units.

What the record says about COCc1cc(-c2nc(-c3cccc(CNC4(C(=O)O)CC4)c3)no2)ccc1-c1ccccc1C : pKi is 8.19

What the record says about CCc1ccccc1-c1ccc(-c2nc(-c3ccc(C(=O)O)c(F)c3)no2)cc1COC : pKi is 8.70

What the record says about COCc1c(-c2nc(-c3cccc(CO)c3)no2)cnn1C1CCCCC1 : pKi is 7.60

What the record says about CC(C)Cn1ncc(-c2nc(-c3cc(F)ccc3F)no2)c1-c1ccncc1 : pKi is 8.05

What the record says about COc1cc(-c2nc(-c3ccc(C(=O)O)c(F)c3)no2)ccc1-c1cscc1C : pKi is 7.22

What the record says about Cc1ccccc1-c1ccc(-c2nc(-c3ccccc3OC(F)(F)F)no2)cc1C : pKi is 8.10

What the record says about Cc1cc(-c2nc(-c3ccccc3OC(F)(F)F)no2)ccc1-c1cscc1C : pKi is 8.30

What the record says about CC1CCCCN1c1ccc(-c2nc(-c3ccc4[nH]ccc4c3)no2)cc1NS(C)(=O)=O (centres unmarked) : pKi is 6.79

====

The entries that follow carry Ki values tested on S1P1 (Homo sapiens (Human)), drawn from several published reports.
Lab note: write values as number then unit, every time.

Item: Fc1ccc(F)c(-c2noc(-c3cnn(-c4ccccc4)c3-c3ccccc3)n2)c1 | System: S1P1 (Homo sapiens (Human)) | Ki: 8 nM

Item: c1cc(-c2c(-c3nc(-c4ccc(Cn5cnnn5)cc4)no3)cnn2C2CCCCC2)ccn1 | System: S1P1 (Homo sapiens (Human)) | Ki: 6 nM

Item: COCc1cc(-c2nc(-c3ccc(C(=O)O)c(F)c3)no2)ccc1-c1cscc1C | System: S1P1 (Homo sapiens (Human)) | Ki: 10 nM

Item: COc1ccccc1-c1noc(-c2ccc(-c3ccccc3C)c(C(F)(F)F)c2)n1 | System: S1P1 (Homo sapiens (Human)) | Ki: 8 nM
